target: MAGL (Homo sapiens)
Sequence (Q99685 whole entry, species assumed): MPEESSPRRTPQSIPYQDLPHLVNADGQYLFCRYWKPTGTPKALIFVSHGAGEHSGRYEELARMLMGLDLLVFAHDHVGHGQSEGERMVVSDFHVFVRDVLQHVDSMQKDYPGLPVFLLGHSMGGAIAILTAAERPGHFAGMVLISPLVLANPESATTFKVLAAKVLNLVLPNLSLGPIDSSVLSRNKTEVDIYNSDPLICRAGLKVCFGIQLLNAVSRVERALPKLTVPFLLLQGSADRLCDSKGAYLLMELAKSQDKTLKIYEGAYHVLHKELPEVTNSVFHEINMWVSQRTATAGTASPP
RECORDED_METRIC: IC50 (nM)

Field: example entries. Status: answers known.
INSERT INTO measurements (compound, recorded_number) VALUES
  ('CC(C)(C)c1ccc(C2CN(C(=O)N3CCC4OCC(=O)NC4C3)C2)cc1 (single isomer, unassigned) [Example 2]', 39),
  ('O=C1CO[C@@H]2CCN(C(=O)N3CC(c4ccc(CC(F)(F)F)cc4)C3)C[C@H]2N1 (single isomer, unassigned)', 357),
  ('O=C1COC2CCN(C(=O)N3CC(c4ccc(C5(C(F)(F)F)CC5)cc4)C3)CC2N1 (single isomer, unassigned)', 95),
  ('O=C1CO[C@@H]2CCN(C(=O)N3CC(OCc4ccc(C(F)(F)F)cc4Cl)C3)C[C@H]2N1 (single isomer, unassigned)', 220),
  ('O=C1CO[C@@H]2CCN(C(=O)N3CCC(Cc4ccc(C(F)(F)F)cc4)CC3)C[C@H]2N1 (single isomer, unassigned)', 2560);

[a] O=C1CO[C@H]2CCN(C(=O)N3CC4(CC(Cc5ccc(F)cc5F)C4)C3)C[C@@H]2N1 (single isomer, unassigned)
[b] O=C1CO[C@@H]2CCN(C(=O)N3CC(OCc4ccc(OC(F)(F)F)cc4)C3)C[C@H]2N1 (single isomer, unassigned)
[c] CC(C)(C)c1ccc(C2CN(C(=O)N3CCC4OCC(=O)NC4C3)C2)cc1 (single isomer, unassigned) [Example 1]
Order field: IC50 | Direction: descending (largest first) Respond with the label ranking, as requested.
b, c, a
(b: 920 nM, c: 235 nM, a: 12 nM)
